Reference source: ChEMBL document CHEMBL1201862

test system: LOX IMVI; assay: NCI tumour cell line growth inhibition, 48 h
The source made the active and inactive calls. No stated cut-off is given here; in the data, active = GI50 up to about 1.1 µM and inactive = higher.
Assignment: determine reported GI50 for the given compounds.

Value lookup for GI50; key = CCN(CC)C(=S)SS(=O)(=O)c1ccc(F)cc1
19.6 µM (inactive)

Value lookup for GI50; key = O=[N+]([O-])c1cc(/C=N/NS(=O)(=O)c2ccc(F)cc2)c(O)c([N+](=O)[O-])c1
39.5 µM (inactive)

Value lookup for GI50; key = C[C@H](c1ccccc1)N1C(=O)[C@@H](OCc2ccccc2)[C@H]1[C@H](COC(=O)COCc1ccccc1)OCc1ccccc1
> 100 µM (inactive)

Value lookup for GI50; key = O=C1/C(=N/O)Cc2c(Br)ccc(Br)c21
31.9 µM (inactive)

Value lookup for GI50; key = O=C1C[C@@H]2[C@@H](C=CC23CC3)N1O
> 100 µM (inactive)

Value lookup for GI50; key = COC(=O)C1=CON2C3CC4CC(C3)CC(C4)C12C (configuration not stated)
> 100 µM (inactive)

Value lookup for GI50; key = C[C@]12CCC(=O)C=C1CC[C@@H]1[C@@H]2CC[C@]2(C)C(=O)/C(=C/c3ccc([N+](=O)[O-])cc3)C[C@@H]12
37.9 µM (inactive)

Value lookup for GI50; key = C=C1C(OC(=O)/C=C/c2ccccc2)CC(OC(C)=O)C2(C)C1CC1CC(OC(C)=O)C(C)=C(C(OC(C)=O)C2OC(C)=O)C1(C)C (configuration not stated)
> 100 µM (inactive)

Value lookup for GI50; key = CC(=O)O[C@@]12CO[C@@H]1C[C@@H](O)[C@@]1(C)C(=O)[C@H](O)C3=C(C)[C@@H](OC(=O)[C@H](O)[C@@H](NC(=O)c4ccccc4)c4ccccc4)C[C@@](O)([C@@H](OC(=O)c4ccccc4)C12)C3(C)C (some centres not stated)
< 0.0303 µM (active)

Value lookup for GI50; key = COc1ccccc1NC(=O)C1=C(C)NC(C)=C(C(=O)Nc2ccccc2OC)C1c1ccc([N+](=O)[O-])cc1
48.9 µM (inactive)

Value lookup for GI50; key = Cc1cc(C)nc(NS(=O)(=O)c2ccc(NC(=O)c3ccc(Cl)c4c(Nc5ccc(S(=O)(=O)Nc6cc(C)on6)cc5)c5ccccc5nc34)cc2)n1
15.8 µM (inactive)

Value lookup for GI50; key = CC1(C)CC(=O)c2c(nc3c4c([nH]c(-c5ccc(Br)cc5)c24)CC(C)(C)C3)C1
30.2 µM (inactive)

Value lookup for GI50; key = CSC1C=C(C(C)C)CCC1(C)SC (configuration not stated)
18.3 µM (inactive)

Value lookup for GI50; key = Clc1cc(Cl)c2ns[s+]c2c1Cl
> 100 µM (inactive)

Value lookup for GI50; key = O=C(CC(=O)C(=O)Nc1ccccc1)CC(c1ccccc1)c1c(O)c2ccccc2oc1=O (configuration not stated)
> 100 µM (inactive)

Value lookup for GI50; key = Nc1nc(SCCC/C=C/B(O)O)nc2c1ncn2C1OC(COP(=O)(O)O)C(O)C1O (configuration not stated)
> 203 µM (inactive)

Value lookup for GI50; key = O=C(CC1(O)C(=O)Nc2c(Cl)ccc(Cl)c21)c1ccc(F)cc1 (configuration not stated)
32.7 µM (inactive)

Value lookup for GI50; key = CC1(OCc2ccccc2)C(=O)N2C1NCC2(C)C (configuration not stated)
> 100 µM (inactive)

Value lookup for GI50; key = Cn1c2ccccc2c2c3c(c4c5ccccc5n(C)c4c21)C(=O)NC3=O
> 34.8 µM (inactive)

Value lookup for GI50; key = CCC12C=CCN3CCC4(c5cc(C(c6ccc(OC)cc6)C6Cc7ccccc7N6)c(OC)cc5N(C)C4C(O)(C(=O)OC)C1O)C32 (configuration not stated)
14.1 µM (inactive)

Value lookup for GI50; key = CCC12C=CCN(CCc3c([nH]c4ccccc34)/C=C\1)C2 (configuration not stated)
> 100 µM (inactive)

Value lookup for GI50; key = CC(=O)OC(C)C1C2=C(C(=O)CC1(C)O)C(=O)c1c(ccc(-c3ccc4c(c3O)C(=O)C3=C(C4=O)C(C(C)OC(C)=O)C(C)(O)CC3=O)c1O)C2=O (configuration not stated)
1.42 µM (inactive)

Value lookup for GI50; key = [N-]=[N+]=NC1C(O)C(CO)OC1n1ccc(N)nc1=O (configuration not stated)
232 µM (inactive)

Value lookup for GI50; key = Cc1nc2sccn2c1C(=O)NN
> 100 µM (inactive)

Value lookup for GI50; key = COC(=O)c1sc(=S)sc1SCc1ccc(CSc2sc(=S)sc2C(=O)OC)cc1
> 100 µM (inactive)

Value lookup for GI50; key = Cn1c2ccccc2c2ccc3c(c21)C(=O)c1ccc2c4ccccc4n(C)c2c1C3=O
> 100 µM (inactive)

Value lookup for GI50; key = CCCC/N=C(/c1ccccc1)N1CCOCC1
> 100 µM (inactive)

Value lookup for GI50; key = CC(=O)OCC(OC(C)=O)C(OC(C)=O)C(OC(C)=O)C(=O)CNn1c(-c2ccc(C)cc2)nc2ccccc2c1=O (configuration not stated)
> 100 µM (inactive)

Value lookup for GI50; key = NC(=O)c1ccc(C(=O)Nc2ccc([As](=O)(O)O)cc2)cc1
> 100 µM (inactive)

Value lookup for GI50; key = O=C(NCCCCCCNC(=O)NC1OCC(O)C(O)C1O)NC1OCC(O)C(O)C1O (configuration not stated)
> 100 µM (inactive)

Value lookup for GI50; key = CCCCCCCCCCCCCCCCCCOCC(COCCOCC[N+]1(CCCCCC(=O)[O-])CCCC1)Oc1ncccn1 (configuration not stated)
2.88 µM (inactive)

Value lookup for GI50; key = Cc1cc2occ(S(=O)(=O)NC(=O)Nc3ccc(Cl)cc3)c(=O)c2c(=O)o1
> 100 µM (inactive)

Value lookup for GI50; key = Cc1ccc([N+](=O)[O-])cc1S(=O)(=O)Nc1ccc(C2=NN(C(=O)c3ccccc3)C(c3ccccc3O)C2)cc1 (configuration not stated)
18.3 µM (inactive)

Value lookup for GI50; key = COC(=O)C(Cc1ccccc1)NC(=O)c1ccc(CNC(=S)NCc2cccc(CNC(=S)NCc3ccccc3)c2)cc1 (configuration not stated)
> 35.6 µM (inactive)

Value lookup for GI50; key = C=C1C(=O)O[C@H]2C1C[C@@H](O)[C@@]1(C)OC1CC[C@@]1(C)O[C@H]21 (some centres not stated)
13.2 µM (inactive)

Value lookup for GI50; key = Cc1cc(N(CCCCl)CCCCl)ccc1/C=N/c1cccc(Cl)c1
13.8 µM (inactive)

Value lookup for GI50; key = CN(C)CCS/C(=N\c1ccccc1)n1cccc1
43.5 µM (inactive)

---

Assignment: determine reported GI50 for the given molecules.
tested on: HOP-92; assay: NCI tumour cell line growth inhibition, 48 h
Calls of active or inactive are those of the source. Rule as the data show it: active = GI50 up to about 1.1 µM and inactive = higher. Residues, ends and D or L forms follow the SMILES beside them.

Value lookup for GI50; key = CN(C)c1n/c(=N/c2ccc(/N=c3\nc(N(C)C)ss3)cc2)ss1
> 100 µM (inactive)

Value lookup for GI50; key = CCC/C(Cl)=N\OC(=O)Nc1ccc(F)c([N+](=O)[O-])c1
15 µM (inactive)

Value lookup for GI50; key = N#CCCN(CCC#N)c1ccc(C(/N=N/c2ccccc2)=N\c2ccccc2)cc1
> 100 µM (inactive)

Value lookup for GI50; key = O=C(NNc1ccnc2cc(Cl)ccc12)/C(=C\c1ccccc1Cl)NC(=O)c1ccccc1
35.6 µM (inactive)

Value lookup for GI50; key = FC(F)(F)C(C1=NC(C(F)(F)F)(C(F)(F)F)N=C(N2CCOCC2)O1)C(F)(F)F
25.8 µM (inactive)

Value lookup for GI50; key = CCOc1cc(/C=N\O)cc(/C=N/O)c1O
23.8 µM (inactive)

Value lookup for GI50; key = COc1ccc2c(Cl)cc(NC(=S)Nc3ccccc3)nc2c1
21.8 µM (inactive)

Value lookup for GI50; key = CCc1oc2ccccc2c1C(=O)c1cc(Br)c(O)c(Br)c1 [BENZBROMARONE]
24.1 µM (inactive)

Value lookup for GI50; key = Cc1c(-c2cc(-c3ccccc3)n[nH]c2=O)c2ccccc2n1C
> 100 µM (inactive)

Value lookup for GI50; key = CCCCC(CCCC)=NNC(=S)SC
38.6 µM (inactive)

Value lookup for GI50; key = Nc1nc(Cl)cc(NCC2(CO)CC=CC2)n1
> 100 µM (inactive)

Value lookup for GI50; key = O=C1CS(=O)(=O)C(c2cccc(Oc3ccccc3)c2)N1c1cccc(Cl)c1Cl (stereo not drawn)
7.26 µM (inactive)

Value lookup for GI50; key = C=C(Br)C(Br)(CCl)CCC(Cl)C(C)C.C=C(Cl)C(Br)(CCl)CCC(Cl)C(C)C (stereo not drawn)
1.87 µM (inactive)

Value lookup for GI50; key = COC(=O)C1CC(=O)CCC1c1ccccc1 (stereo not drawn)
> 100 µM (inactive)

Value lookup for GI50; key = CC1(C)CC2C=C(C=O)C3(C=O)CC3(C)C2C1 (stereo not drawn)
1.95 µM (inactive)

Value lookup for GI50; key = CC(=O)NC(CO)C(=O)NC(Cc1ccc(O)cc1)C(=O)NCC(N)=O (stereo not drawn) (Ac-Ser-Tyr-Gly-NH2; configuration not given here)
> 100 µM (inactive)

Value lookup for GI50; key = NCCCNCCCCN(CCCN)/[N+]([O-])=N\O
> 100 µM (inactive)

Value lookup for GI50; key = Cn1c2ccccc2c2ccc3c(c21)C(=O)c1ccc2c4ccccc4n(C)c2c1C3=O
> 100 µM (inactive)

Value lookup for GI50; key = CN(C)CCCNc1c2c(nc3ccc(Cl)cc13)CCCC2
10.3 µM (inactive)

Value lookup for GI50; key = CC1=CC(=O)c2ccc3c4ccccc4n(C)c3c2C1=O
> 46.5 µM (inactive)

Value lookup for GI50; key = Cn1cnc(CCc2ccccc2)n1
> 100 µM (inactive)

Value lookup for GI50; key = CCOC(=O)C1=C(C)Nc2ccccc2S1
44 µM (inactive)

Value lookup for GI50; key = Cn1cnc([N+](=O)[O-])c1Sc1nnnn1C
12.3 µM (inactive)
